Source: patent US10967086B2

Give loading efficiency for every item shown.
- Assay info: Loading efficiency of photosensitizers in the hybrids (UV-Vis absorption)
- Format: physicochemical
- Assay conditions: named photosensitizer loaded into Ag@mSiO2@photosensitizer hybrid; Example 1
One number for each entry, in µg/mg.

For every item below, please supply its loading efficiency.
1. O=C(O)c1ccc(-c2c3nc(c(-c4ccc(C(=O)O)cc4)c4ccc([nH]4)c(-c4ccc(C(=O)O)cc4)c4nc(c(-c5ccc(C(=O)O)cc5)c5ccc2[nH]5)C=C4)C=C3)cc1 [TCPP, meso-tetra(4-carboxyphenyl) porphine]
2. O=C([O-])c1ccc(C2=C3C=CC(=N3)C(c3ccc(C(=O)[O-])cc3)=C3C=CC(=N3)C(=c3ccc(=C([O-])[O-])cc3)c3ccc([n-]3)C(c3ccc(C(=O)[O-])cc3)=C3C=CC2=N3)cc1.[67Cu+2].[H+].[H+].[H+].[H+] [Cu-TCPP]

140.7
260.5

* * *

- Assay info: Loading efficiency of photosensitizers in the hybrids (UV-Vis absorption)
- Type: physicochemical
- Assay conditions: named photosensitizer loaded into Ag@mSiO2@photosensitizer hybrid; Example 1
Counter-ions that a name gives are not always drawn.
Parameter measured: loading efficiency
Please make sure the unit comes right after the number.

Reference set, count: 2
Molecule	loading efficiency
O=C1OC2(c3cc(I)c(O)c(I)c3Oc3c2cc(I)c(O)c3I)c2c(Cl)c(Cl)c(Cl)c(Cl)c21	33.6 µg/mg
CC1=C(CCC(=O)O)c2cc3[nH]c(cc4nc(cc5[nH]c(cc1n2)c(C)c5C(C)O)C(C)=C4C(C)O)c(C)c3CCC(=O)O (stereo not drawn) [HPIX, hematoporphyrin IX dihydrochloride]	27.4 µg/mg

Then there is this molecule:
Consider the molecule shown here: CCC1=C(C)c2cc3[nH]c(cc4[nH]c(cc5nc(cc1n2)C(C)=C5CC)c(C)c4CCC(=O)O)c(CCC(=O)O)c3C What is its recorded loading efficiency?
750 µg/mg
